Exercise: state measured Kd for each of the binders provided.
- test_system: T1, GFP-9S library array, motif 4 ND N98H;D124G (synthetic construct, N98H;D124G)
- T1 chain: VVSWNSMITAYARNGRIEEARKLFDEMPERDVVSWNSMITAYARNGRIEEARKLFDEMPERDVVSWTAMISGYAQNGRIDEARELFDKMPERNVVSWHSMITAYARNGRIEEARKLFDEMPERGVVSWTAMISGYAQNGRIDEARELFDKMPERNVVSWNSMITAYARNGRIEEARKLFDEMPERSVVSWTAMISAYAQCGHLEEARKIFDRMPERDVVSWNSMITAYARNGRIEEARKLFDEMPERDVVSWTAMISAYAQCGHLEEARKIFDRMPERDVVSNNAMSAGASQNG
- assay_remarks: high-throughput RNA pulldown from lysate on Ni-NTA beads; HRP: 50 mM Tris pH 8, 150 mM NaCl, 1 mM beta-mercaptoethanol, 50 ug/ml BSA, 3 ug/ml yeast RNA, 0.5% heparin; ITC and FP: Tris pH 8, 200 mM KCl, 5% glycerol; MST: 50 mM Tris pH 8, 200 mM NaCl, 1 mM DTT, BSA, heparin, 0.05% Tween 20
- condition_context: tags: N-terminal His-eGFP; label: 5' IRDye 800CW
One number for each entry, in nM.

AUUAUACGUGA (ssRNA) [IR-rpoA-U] :: 38.7

Pending binder:
*Q* Would you kindly share the measured Kd for AUUAAACGUGA (ssRNA) [IR-rpoA-A] ?
*A* 61.3
